- test.name: Pharmacokinetic results of the drugs in SD rats
- Format: in vivo
- assay.conditions: rat, in vivo, po (10 mg/kg), read-out: AUC0-inf
Each entry below lists one item and its recorded AUC0-inf value.
readout.type: AUC0-inf

- compound: "NC(=O)/C(=C/n1cnc(-c2cc(C(F)(F)F)cc(C(F)(F)F)c2)n1)c1cncnc1 [KPT-8602, reference compound]"
  result: "2600 ng·h/mL"
- compound: "CONC(=O)/C(=C/n1cnc(-c2cc(C(F)(F)F)cc(C(F)(F)F)c2)n1)c1cncnc1"
  result: "3890 ng·h/mL"

====

- test.name: Pharmacokinetic results of the drugs in SD rats
- Format: in vivo
- assay.conditions: rat, in vivo, po (10 mg/kg)
Each entry below carries its recorded half-life.

- compound: "NC(=O)/C(=C/n1cnc(-c2cc(C(F)(F)F)cc(C(F)(F)F)c2)n1)c1cncnc1 [KPT-8602, reference compound]"
  half-life [h]: 2.69
- compound: "CONC(=O)/C(=C/n1cnc(-c2cc(C(F)(F)F)cc(C(F)(F)F)c2)n1)c1cncnc1 [Compound I]"
  half-life [h]: 5.59

The values you see were collected from patent US12723037B2.
